# assay notes: Unbound brain-to-plasma concentration ratio (Kp,uu, brain) in ICR mouse at 2.5 mg/kg, iv and measured upto 6 hrs by LC-MS/MS analysis
# Type: ADME, organism-based
# assay conditions: read-out: K(p,uu,brain)
readout name: Kp uu at 6 h
// return a plain number; no unit text

State the recorded Kp uu at 6 h for this entry: "CN1CCN(c2ccc(Nc3ncc4cc(C#N)c(=O)n(C5CCCC5)c4n3)cc2)CC1"
0.036

###

# assay notes: Protein binding in mouse plasma assessed as fraction unbound at 10 uM incubated for 6 hrs with rotation by dialysis based LC-MS/MS analysis
# Type: ADME, cell-free
readout name: fraction unbound at 6 h, 10 µM
Output spec: single numeric token, no unit.

Request the reported fraction unbound at 6 h, 10 µM associated with CN1CCN(c2ccc(Nc3ncc4cc(C#N)c(=O)n(C5CCCC5)c4n3)cc2)CC1 [NARAZACICLIB]
0.006
